Target: T1, matriptase (Charles Craik, UCSF), recombinant (Homo sapiens (Human), UniProt Q9Y5Y6)
T1 sequence: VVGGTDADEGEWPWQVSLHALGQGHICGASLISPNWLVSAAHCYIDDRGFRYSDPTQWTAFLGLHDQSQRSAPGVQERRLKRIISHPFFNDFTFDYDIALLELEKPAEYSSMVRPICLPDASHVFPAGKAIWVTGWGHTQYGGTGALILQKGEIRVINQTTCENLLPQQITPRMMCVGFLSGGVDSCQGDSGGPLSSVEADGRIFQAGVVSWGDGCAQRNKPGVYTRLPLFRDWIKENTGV
Assay: fluorogenic inhibition assay
*: point of attachment. kbt‑6‑CONH‑4‑piperidine = ketobenzothiazole-6-CONH-4-piperidine (Kbt-4-piperidinylamide), O=C(NC1CCNCC1)c1ccc2nc(*)sc2c1; kbt‑6‑CONH‑Bn = ketobenzothiazole-6-CONH-benzyl (Kbt-benzylamide), O=C(NCc1ccccc1)c1ccc2nc(*)sc2c1; kbt = C-terminal ketobenzothiazole, c1ccc2sc(*)nc2c1; Kbt = ketobenzothiazole, c1ccc2sc(*)nc2c1; Fmoc = O=C(OCC1c2ccccc2-c2ccccc21)*
measured-quantity: pKi
Numbers only, as −log10 of the molar value.

Worked examples, 3 binders total:
binder	pKi
Ac-SKLR-{kbt‑6‑CONH‑4‑piperidine} [Ac-SKLR(SEQ ID NO: 10)-Kbt-4-piperidinylamide]	8.89
Ac-KRLR-{Kbt-Benzyl‑3‑COOMe} [Ac-KRLR(SEQ ID NO: 8)-kbt-Benzyl-3-COOMe]	8.74
Ac-KRLR-Kbt (not fully specified) [Ac-KRLR(SEQ ID NO: 8)-Kbt-5-COOH]	8.29

Batch request: pKi for each of the following binders.
1. Ac-WLFR-kbt (SMILES CC(=O)N[C@@H](Cc1c[nH]c2ccccc12)C(=O)N[C@@H](CC(C)C)C(=O)N[C@@H](Cc1ccccc1)C(=O)N[C@@H](CCCNC(=N)N)C(=O)c1nc2ccccc2s1) [Ac-WLFR(SEQ ID NO: 20)-Kbt]
2. Fmoc-Phe-Arg-kbt [Fmoc-FR-kbt]
3. Ac-SKLR-{kbt‑6‑CONH‑Bn} [Ac-SKLR(SEQ ID NO: 10)-Kbt-benzylamide]

1: 8.22; 2: 5.89; 3: 9.44
